Assay: in vivo
Conditions: mouse, in vivo, ip
Procedure: In this assay, Frings and CF1 mice were injected with test compound and placed on a knurled rod which rotated at a speed of 6 rpm. The ability of the mice to maintain equilibrium for long periods of time was determined; those mice that were unable to maintain equilibrium on the rotorod for 1 min in each of 3 trials were considered impaired.
attribute.measured: TD50 (mg/kg)
Unit mg/kg implied. Number only.

Complete the entry with TD50 for NCCC(c1ccccc1)c1ccccc1 43.8

Read the entry CNCCC(c1cccc(F)c1)c1cccc(F)c1 and write its reported TD50. 17.3

State its TD50: COc1cccc(C(CCN)c2cccc(F)c2)c1 (centres unmarked) 32.2

In one line, give reported TD50 of the entry NCCC(c1cccc(F)c1)c1cccc(F)c1 . 20.6

Read the entry NC(=O)CC(c1cccc(F)c1)c1cccc(F)c1 [Compound 151, 3,3-Bis(3-fluorophenyl)propanamide] and write its reported TD50. 108

====

target: NMDA receptor-ionophore complex (site labeled by [3H]MK-801); assay: Inhibition of [3H]MK-801 binding in rat cortical/hippocampal washed membrane preparations; conditions: read-out: IC50 (μM) vs. [3H]MK-801
I'd appreciate it if you could supply IC50 values for the items below.
Dear colleague, please return just the value in µM, with no unit written.

Indicate its recorded IC50; the molecule in question is NCCc1ccccc1Cc1ccccc1 5.5

Specify measured IC50 for CNCCC=C1c2ccccc2CCc2ccccc21 [Nortriptyline, reference compound] . 5.67

====

molecular target: NMDA receptor-ionophore complex (site labeled by [3H]MK-801); experiment: Inhibition of [3H]MK-801 binding in rat cortical/hippocampal washed membrane preparations; conditions: read-out: IC50 (μM) vs. [3H]MK-801; rat cortical/hippocampal washed membranes
attribute.measured: IC50 (µM)
State just the number; it will be interpreted in µM.

Give the value of IC50 reported for the following: NCC(c1cccc(F)c1)c1cccc(F)c1 52.5

Please indicate IC50 recorded for NCCC(Oc1cccc(Cl)c1)c1cccc(Cl)c1 (stereo not shown) 0.15

Supply measured IC50 of NCCC(Oc1cccc(F)c1)c1cccc(Cl)c1 (stereo not shown) in your reply. 0.351

Provide only the value of recorded IC50 for NCCN1c2ccccc2CCc2ccccc21 [Eli Lilly Compound, reference compound] 1.17

Recall and state the measured IC50 for NCCC(c1cccc(Cl)c1)c1cccc(Cl)c1 . 1.3

Look up IC50 of NCC=C(c1ccccc1)c1cccc(F)c1 (racemic) and report it. 3.83

Return reported IC50. Input compound: NCCC(c1cccc(F)c1)c1ccccc1F (stereo not shown) 0.38

Tell us which IC50 value is on record for CC(C)C(CCN)c1cccc(F)c1 (stereo not shown) 11.1

Give me measured IC50, please, for this compound: CCNC[C@H](C)C(c1cccc(F)c1)c1cccc(F)c1 2.9

Answer with the recorded IC50 for the compound listed here: NCCC(Oc1ccccc1)c1ccccc1 (stereo not shown) 0.372

====

target: NMDA receptor-ionophore complex (site labeled by [3H]MK-801); experiment: Inhibition of [3H]MK-801 binding in rat cortical/hippocampal washed membrane preparations; conditions: read-out: IC50 (μM) vs. [3H]MK-801; rat cortical/hippocampal washed membranes
Assignment: determine reported IC50 for the given compounds.
Report the figure in µM without appending any unit label.

Answer with the recorded IC50 for the compound listed here: CNCCC(c1cccc(F)c1)c1cccc(F)c1 0.641

Consider the compound NCCC1c2ccccc2CCc2c(F)cccc21 (stereo not shown) and give its recorded IC50. 2.24

Determine its reported IC50: NCCC(c1cc(F)cc(F)c1)c1cc(F)cc(F)c1 3

Output IC50 of CNC[C@H](C)C(c1cccc(F)c1)c1cccc(F)c1 1.2

Answer with the recorded IC50 for the compound listed here: NCCc1ccccc1Oc1ccccc1 6.4

Give IC50 for CNCCC(c1cccc(F)c1)c1cccc(OC)c1 (stereo not shown) 1.54

Report IC50 for CCC(CN)C(c1cccc(F)c1)c1cccc(F)c1 (stereo not shown) 0.153

For the compound N[C@H]1CCCC1C(c1cccc(F)c1)c1cccc(F)c1 (stereo partly shown) , give its measured IC50 value. 0.245

Indicate the recorded IC50 value for this compound: Fc1cccc(C(=C2CCCNC2)c2cccc(F)c2)c1 1.08
